Molecular target: T1, huCD98hc ECD Avi-His (human, UniProt P08195 105-529)
T1 construct: biotinylated on the Avi tag where captured on streptavidin; also called Human CD98-AVI-His; Human CD98hc-AVI-His
T1 sequence: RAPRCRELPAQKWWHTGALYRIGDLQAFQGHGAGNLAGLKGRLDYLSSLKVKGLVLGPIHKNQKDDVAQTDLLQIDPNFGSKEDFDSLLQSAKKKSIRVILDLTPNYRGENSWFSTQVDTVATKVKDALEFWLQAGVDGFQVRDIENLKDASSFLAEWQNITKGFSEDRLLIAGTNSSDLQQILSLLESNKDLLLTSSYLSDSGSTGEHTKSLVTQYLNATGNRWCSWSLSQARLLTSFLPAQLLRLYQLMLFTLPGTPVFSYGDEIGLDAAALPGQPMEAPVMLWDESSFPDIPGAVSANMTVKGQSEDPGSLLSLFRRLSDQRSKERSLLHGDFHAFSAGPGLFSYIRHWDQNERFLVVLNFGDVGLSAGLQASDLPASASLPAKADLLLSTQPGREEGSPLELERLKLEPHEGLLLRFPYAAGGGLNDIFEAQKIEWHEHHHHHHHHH
Test: ELISA, hybridoma supernatant
For each of the binders below, state its OD450.
Give bare numbers.

Sample answers from the record:
Binder	OD450
CD98HC.04.012 (antibody, V domains shown, hybridoma IgG) VH: QVQLQQSGADLVRPGDSVKISCKGSGYTFTDNTLHWVKQSHAKSLEWIGVISPYYGDASYNQKFKGKATMTVDKSSSTAYMELARLTSEDSAIYYCARVGGRLRLGYYFDHWGQGTTLTVSS VL: NIMMTQSPSSLAVSAGEKVTMNCKSSQSVLSSSNQKNYLAWYQQKPGQSPKLLIYWASTRESGVPARFTGSGSGTDFSLTITSVQAEDLAVYYCLQYLSSYTFGGGTKLEIK	1.64
CD98HC.03.004 (antibody, V domains shown, hybridoma IgG) VH: DVQLQESGPGLVKPSQSLSLTCTVTGYSITNNYAWNWIRRFPGNKLEWMAYISYSGYTSYNPSLKSRISITRDTSKNQFFLQLNSVTTEDTATYYCTGYFYYYGGGSFDYWGQGTTLTVSS VL: QAVVTQESALTTSPGETVTLTCRSSTGAVTTSNFANWVQEKPDHLFTGLIRGSNNRAPGVPARFSGSLIGDKAALTITGARTEDEAIYFCALWYSDHWVFGGGTKLTVL	1.49

Enquiry: Report OD450 for CD98HC.04.022 (antibody, V domains shown, hybridoma IgG) VH: EVQLQQSGAELVKPGASVKLSCTASGFNIKDTFMHWMKQRPEQGLEWIGRIDPANANTRYDPKFQGKATITTDTSSNTAYLQLSSLTSEDTAVYYCARDVYYDVWGAGTTVTVSS VL: DILMTQSPSSMSVSLGDTVTITCHASQGISSNIGWLQQKPGRSFKGLIYHGSNLEDGVPSRFTGSGSGTDYSLTISGLESEDFADYYCVQYAQFPRTFGGGTKLEIQ please.
Return: 1.36
